system: RPMI-8226; test: NCI tumour cell line growth inhibition, 48 h
Activity calls are given as the source filed them. No stated cut-off is given here; in the data, active = GI50 up to about 1.1 µM and inactive = higher. Starred links: 1 amine or outer side, 2 acyl side, 3 side chain; linkers in the order of their positions; H or OH if unused. Non-standard residues stand in square brackets, D forms with d. Residues, ends and D or L forms follow the SMILES beside them. X4 = C[C@H](N[*:1])C(=O)C(C)(C)C(=O)[*:2]; Hmpa(2S,3S) = CC[C@H](C)[C@H](O)C(=O)O; NMeY = CN[C@@H](Cc1ccc(O)cc1)C(=O)O; NMeL = CN[C@@H](CC(C)C)C(=O)O; NMeV = CN[C@H](C(=O)O)C(C)C; βAla = NCCC(=O)O
Outcomes: active, inactive

O=C1OC(C(O)CO)C(C(O)CO)OC1=O (stereo unspecified)	inactive
COc1cc(C2C3=C(COC3=O)Oc3cc4c(cc32)OCO4)ccc1OC(C)=O (stereo unspecified)	active
CCCCn1cc(C(=O)O)c(=O)c2c3sccc3ccc21	inactive
CS(=O)(=O)c1nc(-c2cc3c(c(S(C)(=O)=O)n2)CCC3)cc2c1CCCC2	inactive
Cc1ccc(C(=O)N2CCCCC2)cc1/N=N/N(C)C	inactive
Cc1coc2c1[C@@H](O)[C@@]1(C)[C@H](CCC[C@@H]1C)C2	inactive
COc1cc(OC)c2c(=O)cc(-c3ccc(OC)c(OC)c3OC)oc2c1	inactive
CSCSCC(CO)NC(=O)/C=C\c1c(C)[nH]c(=O)[nH]c1=O (stereo unspecified)	inactive
N#CCCN(CCC#N)c1ccc(/C=C2\N=C(c3ccccc3)N(c3ccccc3)C2=O)cc1	inactive
COc1ccc(C2C(=O)C(Cl)N2Nc2nc(C)cc(O)n2)cc1OC (stereo unspecified)	inactive
COC(=O)[C@]12CSC[C@H]1C[C@H](c1ccc(N(C)C)cc1)N2	inactive
NC(=S)SC1=NC(=O)C2(NN1)c1ccccc1-c1ccccc12	inactive
CCSc1nc(COC(=O)NC)c(COC(=O)NC)n1C	inactive
CC1(c2cccs2)CC(c2cccs2)=C(C#N)C(=C(C#N)C#N)N1 (stereo unspecified)	inactive
O=C(c1ccccc1)N1C(=S)N(c2ccc([N+](=O)[O-])cc2)C(=N/c2ccccc2)/C1=N\c1ccccc1	inactive
COc1ccccc1/C=C1\C(=O)N(C(=O)c2ccc(NC(C)=O)cc2)N=C1C	inactive
CNc1ncnc(Sc2nc(N)nc3[nH]cnc23)c1[N+](=O)[O-]	active
CC1OC(OC2C(O)COC(OC3C(C)OC(OC4C(OC(=O)[C@]56CCC(C)(C)C[C@@H]5C5=CCC7[C@@]8(C)C[C@H](O)[C@H](OC9OC(CO)C(O)C(O)C9O)[C@@](C)(CO)[C@@H]8CC[C@@]7(C)[C@]5(C)CC6)OCC(O)C4O)C(O)C3OC3OCC(O)(CO)C3O)C2O)C(O)C(O)C1O (stereo partly specified)	inactive
c1csc(-c2nn3c(C45CC6CC(CC(C6)C4)C5)nnc3s2)c1	inactive
CC12CC3CC(C)(C1)CC(N=[N+]=[N-])(C3)C2	inactive
COc1ccc(/C=C2\CNC/C(=C\c3ccc(OC)cc3)C2=O)cc1	inactive
CCOC(=O)CSc1nc(-c2ccc(OC)cc2)c(C#N)c(=O)[nH]1	inactive
CCc1ccc2oc(-c3cc(O)c(-c4nc5cc(CC)ccc5o4)cc3O)nc2c1	inactive
CN1CCc2c1nc(-c1ccccc1)c1c2N(C)CC1	inactive
CC1OC(n2ccc(=O)[nH]c2=O)C=C(OC(=O)c2ccccc2)C1=O (stereo unspecified)	inactive
CN(C)c1ccc(/C=C/c2nc3ccccc3s2)cc1	inactive
Cc1c2c(OCC3CCCCO3)nn(C)c(=O)c2c(C)n1-c1ccccc1 (stereo unspecified)	inactive
CC12C(=O)CC(CC1=O)C2(C)C	inactive
COc1c(O)c(OC)c2oc(-c3ccc(O)cc3)c(OC)c(=O)c2c1O	inactive
CC(C)C1=CC(=O)C(C)(C2C(O)CC3(C)C4CC=C5C(CCC(OC6OC(CO)C(O)C(O)C6OC6OC(C)C(O)C(O)C6O)C5(C)C)C4(C)C(=O)CC23C)O1 (stereo unspecified)	inactive
CC[C@H](C)[C@@H]1OC(=O)CCNC(=O)[C@@H](C)NC(=O)C(C)(C)C(=O)[C@H](C)NC(=O)[C@H](Cc2ccc(OC)cc2)N(C)C(=O)[C@H](C(C)C)N(C)C(=O)CNC(=O)[C@H](CC(C)C)N(C)C(=O)CNC1=O (cyclo(G[NMeL]G[NMeV][NMeY](Me)[X4][dA][βAla][Hmpa(2S,3S)]))	active
COc1ccc(O)c(/C(C)=N/NC(=S)N(C)C)c1	inactive
CS(=O)(=O)O[C@H]1[C@H](O)c2ccccc2[C@@H]1N=[N+]=[N-]	inactive
O=C1CCC(Cl)=CC2CCCN12 (stereo unspecified)	inactive
CC[C@@H]1/C=C/C=C/C[C@H](C)[C@@H](O)[C@](C)(O)C(=O)[C@H](C)[C@@H](O)[C@H](C)C(=O)[C@H](C)[C@@H](O)[C@H](C)/C=C/C(=O)O[C@H]2[C@@H](C)[C@@H](CC1)O[C@]1(O[C@H](CC(C)O)[C@H](C)CC1=O)[C@@H]2C (stereo partly specified)	active
O=c1c2cc(-c3ccccc3)cnc2sn1-c1ccc(Oc2ccccc2)cc1	inactive

====

test system: NCI-H522; assay: NCI tumour cell line growth inhibition, 48 h
Calls of active or inactive are those of the source. No stated cut-off is given here; in the data, active = GI50 up to about 1.1 µM and inactive = higher. Starred links: 1 amine or outer side, 2 acyl side, 3 side chain; linkers in the order of their positions; H or OH if unused. Non-standard residues stand in square brackets, D forms with d. Residues, ends and D or L forms follow the SMILES beside them. X4 = C[C@H](N[*:1])C(=O)C(C)(C)C(=O)[*:2]; Hmpa(2S,3S) = CC[C@H](C)[C@H](O)C(=O)O; NMeY = CN[C@@H](Cc1ccc(O)cc1)C(=O)O; NMeL = CN[C@@H](CC(C)C)C(=O)O; NMeV = CN[C@H](C(=O)O)C(C)C; βAla = NCCC(=O)O
Classes used: active, inactive

[N-]=[N+]=Nc1ccccc1-c1ccccc1[N+](=O)[O-]	inactive
O=c1[nH]c(=O)n(C2CC(O)C(CS)O2)cc1F (centres undefined)	inactive
Cn1c(S)nnc1-c1csc(-c2ccc(Cl)cc2)n1	inactive
CCN(CCCl)CCNc1c2ccccc2nc2ccc(OC)cc12	active
CC(=O)O/N=C(Cl)/C(Cl)=N/OC(C)=O	inactive
COc1c(O)c(OC)c2oc(-c3ccc(O)cc3)c(OC)c(=O)c2c1O	inactive
O=C1C(Cl)=C(Cl)C(=O)N1c1ccccc1Cl	inactive
CN(C)c1ccc(/C=C/c2nc3ccccc3s2)cc1	inactive
NC(=O)N/N=C(\Cc1nc2ccc(C(=O)c3ccccc3)cc2nc1O)C(=O)Nc1ccc(Br)cc1	inactive
O=C(C[n+]1ccccc1)NNC(=O)/C(=C/c1ccc2c(c1)OCO2)NC(=O)c1ccccc1	inactive
CCOC(OCC)[C@@H]1C[C@@H]2N(O[C@H](OC3CCCC3(c3ccccc3)c3ccccc3)[C@H](OC(C)=O)[C@@]2(CC)Cc2ccc(OC)c(OC)c2)O1 (some centres undefined)	inactive
COC(=O)[C@@H](O)[C@](O)(CCC(C)C)C(=O)O[C@@H]1C(OC)=C[C@]23CCCN2CCc2cc4c(cc2[C@H]13)OCO4	active
O=[N+]([O-])/C=C/c1cccc(F)c1	inactive
O=C(C1OC1c1ccc(O)cc1)C12CC3CC(CC(C3)C1)C2 (centres undefined)	inactive
CC[C@H](C)[C@@H]1OC(=O)CCNC(=O)[C@@H](C)NC(=O)C(C)(C)C(=O)[C@H](C)NC(=O)[C@H](Cc2ccc(OC)cc2)N(C)C(=O)[C@H](C(C)C)N(C)C(=O)CNC(=O)[C@H](CC(C)C)N(C)C(=O)CNC1=O (cyclo(G[NMeL]G[NMeV][NMeY](Me)[X4][dA][βAla][Hmpa(2S,3S)]))	active
COc1ccc(/N=N/C(=O)NC(CC(C)C)C(=O)NCC(=O)O)cc1 (centres undefined)	inactive
Oc1ccc(Cn2c(-c3ccc(O)cc3)nc3ccccc32)cc1	inactive
O=C1Nc2ccccc2/C1=N/Nc1ccccc1[N+](=O)[O-]	inactive
Cn1ncc2c(=O)[nH]c(-c3ccccc3)nc21	inactive

====

Item-by-item account of GI50
test system: SK-OV-3; assay: NCI tumour cell line growth inhibition, 48 h
Activity calls are given as the source filed them. Rule as the data show it: active = GI50 up to about 1.1 µM and inactive = higher.
measurement_name: GI50

C=CCC1NCCC2=C1C(S(=O)(=O)c1ccc(C)cc1)c1ccccc12 (configuration not stated)	16.6 µM (inactive)
Cc1ccc(S(=O)(=O)N2CCNCCN(S(=O)(=O)c3ccc(C)cc3)CCN(S(=O)(=O)c3ccc(C)cc3)CC2)cc1	> 100 µM (inactive)
C=CCNC(=S)OCCCCCCCCCC	24.3 µM (inactive)
COC(=O)CCC(=O)Nc1cc(C)ccc1C	> 100 µM (inactive)
COc1cccc(C(C#N)NNC(=O)c2c(Cl)c(Cl)c(Cl)c(Cl)c2-c2nc3cc(C(=O)c4ccccc4)ccc3[nH]2)c1O (configuration not stated)	3.03 µM (inactive)
C=C(C)CCC(=O)[C@](C)(O)[C@H]1[C@H](O)C[C@@]2(C)[C@@H]3CCc4c(cc(OC5OC(CO)C(O)C(O)C5O)c(O)c4C)C3(C)C(=O)C[C@]12C (some centres not stated)	> 100 µM (inactive)
CC(=O)N(C(=O)CC(=O)N1N=C(c2ccccc2)C(/N=N/c2ccccc2[N+](=O)[O-])C1=O)c1ccc(Cl)cc1 (configuration not stated)	> 10 µM (inactive)
Cc1ccc(S(=O)(=O)NC(=O)Nc2ccc(C(=O)O)c(O)c2)cc1	> 100 µM (inactive)
O=C(O)CCN1CCN(CCC(=O)O)CCN(CCC(=O)O)CC1	> 100 µM (inactive)
CCOC(=O)C(CC(C)C)NC(=O)C(N)Cc1ccc(N(CCCl)CCCl)cc1 (configuration not stated)	3.65 µM (inactive)
COc1cc2ccc1OCc1cccc(n1)COc1ccc(cc1OC)/C=N\c1ccc(cc1)-c1ccc(cc1)/N=C\2	> 100 µM (inactive)
CC(C)CC(NC(=O)C(COc1ccc([N+](=O)[O-])cc1)Cc1ccccc1)C(=O)Nc1ccccc1 (configuration not stated)	13.8 µM (inactive)
